Molecular target: 5-lipoxygenase (Homo sapiens, UniProt P09917)
Construct: Human polymorphonuclear leukocytes (neutrophils) were obtained from normal healthy volunteers; endogenous in cells; host or cells: human blood neutrophils from healthy volunteers
Sequence (P09917 whole entry): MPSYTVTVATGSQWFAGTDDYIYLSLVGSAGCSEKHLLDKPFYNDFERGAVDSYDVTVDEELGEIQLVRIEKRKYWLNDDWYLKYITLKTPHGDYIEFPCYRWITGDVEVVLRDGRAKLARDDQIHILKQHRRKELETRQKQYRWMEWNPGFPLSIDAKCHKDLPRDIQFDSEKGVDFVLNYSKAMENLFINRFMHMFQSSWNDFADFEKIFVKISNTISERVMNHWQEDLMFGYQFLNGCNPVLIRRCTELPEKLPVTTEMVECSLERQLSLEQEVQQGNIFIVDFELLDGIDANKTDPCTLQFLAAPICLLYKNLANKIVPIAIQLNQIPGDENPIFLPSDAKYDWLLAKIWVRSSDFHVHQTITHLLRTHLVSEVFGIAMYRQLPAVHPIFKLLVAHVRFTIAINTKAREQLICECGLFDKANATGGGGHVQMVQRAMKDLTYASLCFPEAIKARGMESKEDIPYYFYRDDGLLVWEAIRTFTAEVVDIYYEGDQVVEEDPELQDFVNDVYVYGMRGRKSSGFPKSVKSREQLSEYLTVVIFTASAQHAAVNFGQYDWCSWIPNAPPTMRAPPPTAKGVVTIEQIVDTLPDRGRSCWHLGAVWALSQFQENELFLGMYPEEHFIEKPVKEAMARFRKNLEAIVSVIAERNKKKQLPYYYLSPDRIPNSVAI
Experiment: 5-Lipoxygenase assay with human neutrophils
Format: cell-based
Settings: 5 min; Human PMN, dose 15 μm (μM); read-out: % Inhibition LTB
Description: Human polymorphonuclear leukocytes (neutrophils) were obtained from normal healthy volunteers by venipuncture and collected with heparin anticoagulant. Neutrophils were isolated by Dextran/Ficol sedimentation as described (Billah et al., J. Biol. Chem. 260, 6899-6906 (1985)). In brief, 30 ml of blood was mixed with 5 ml of dextran (Sigma) solution and kept at 37° C. for 30 min. […]
MEASURED_METRIC: inhibition at 15 µM (%)

1. COc1cc(OC)c2c(c1)C(C)(C)C(c1ccc(OC)c(OC)c1)C(C)C(=O)O2 (stereo not drawn) [drawing 106 [X=O; R3/R4=O; J=CH3; L,P=OCH3]]; 2

a. COc1cc(OC)c2c(c1)C(C)(C)C(c1ccc(OC)c(OC)c1)CC(=O)N2 (stereo not drawn) [drawing 89 [X=NH; R3/R4=O; P=OCH3]]
b. COc1cc(OC)c2c(c1)C(C)(C)C(c1ccc(OC)c(OC)c1)CC(=O)C2 (stereo not drawn) [drawing 89 [X=CH2; R3/R4=O; P=OCH3]]
Request: Could you determine which record has the numerically smaller inhibition at 15 µM? Candidates: a and b Could you answer with the label of the item you picked?
Response: a

---

target: 5-lipoxygenase (Homo sapiens, UniProt P09917); construct: Human polymorphonuclear leukocytes (neutrophils) were obtained from normal healthy volunteers; endogenous in cells; host or cells: human blood neutrophils from healthy volunteers; assay: 5-Lipoxygenase assay with human neutrophils; type: cell-based; details: 5 min; Human PMN, dose 15 μm (μM); read-out: % Inhibition 5-HETE
MEASURED_METRIC: inhibition at 15 µM (%)

1) CON=C1CC(c2ccc(OC)c(OC)c2)C(C)(C)c2cc(OC)cc(OC)c21 (centres unmarked); 55
2) COc1ccc(C2CC(=O)c3c(cc(OC)c(OC)c3OC)C2(C)C)cc1OC (centres unmarked); 0
3) COc1cc(OC)c2c(c1)C(C)(C)C(c1ccc(OC)c(OC)c1)CCC2=O (centres unmarked) [drawing 90 [X=O; W=H; J=H]]; 51
4) CC1(C)c2cc(O)cc(O)c2C(=O)CCC1c1ccc(O)c(O)c1 (centres unmarked) [drawing 107 [X=O; db no; W,J,F=H; E,G,L,P=OH]]; 88

I. COc1cc(OC)c2c(c1)C(C)(C)C(c1ccccc1)CC2=O (centres unmarked)
II. COc1cc(OC)c2c(c1)C(C)(C)C(c1ccc(OC)c(OC)c1)CC2=NN (centres unmarked)
III. COc1cc(OC)c2c(c1)C(C)(C)C(c1ccc(OC)c(OC)c1)CC(=O)C2 (centres unmarked) [drawing 89 [X=CH2; R3/R4=O; P=OCH3]]
IV. COc1cc(OC)cc(C2=CC(=O)c3c(cc(OC)c(OC)c3OC)C2(C)C)c1 [drawing 101 [R3/R4=O; E,G,P,L,K=OCH3; db yes]]
Request: Order the items by recorded inhibition at 15 µM; the first position goes to the largest value. Provide your answer as the labels ordered per the instruction.
Response: III, II, IV, I
(III: 87%, II: 35%, IV: 7%, I: 0%)
